The following compounds are listed with their measured melting point values.

Use these answered entries as a reference point.
1. O=C(c1cccs1)c1cnn2c(-c3cccc(-c4ccn(CCN5CCCC5)n4)c3)ccnc12 = 63 °C
2. Cc1ccc(CSc2c(O)cc(C)oc2=O)cc1 = 134 to 135 °C
3. C#Cc1ccc2ccc(C#C)cc2c1 = 124 to 126 °C
4. Cc1c(C(=O)CS(=O)(=O)Cc2ccc(Cl)cc2)sc2ccc(Cl)cc12 = 204 to 206 °C
5. NC(=O)N[C@@H]1CCC[C@@H](O)c2sccc21 (relative stereo) = 169 to 172 °C

Measured melting point of "N#Cc1nc(C#N)c(C#N)nc1C#N" : 274 to 276 °C

Measured melting point of "Nc1ccc(C(=O)OCCOC(=O)CC[C@@H](C(=O)O)n2c3ccccc3c3ccccc32)cc1" : 65 °C

Measured melting point of "CCc1nc(-c2nn(Cc3ccccc3F)c3ccccc23)oc1CO" : 144 °C

Measured melting point of "COc1cc2c(cc1OC)C(=O)CCCO2" : 87 to 88 °C

Measured melting point of COc1ccc(CN2C(=O)[C@@H](NC(=O)Cc3ccccc3)[C@H]2CNC(C)=O)c(OC)c1 (relative stereo) : 205 to 207 °C

Measured melting point of "CCCCCCCCCCCCCCCCN1C(=O)C2=C(c3cccs3)N(CCCCCCCCCCCCCCCC)C(=O)C2=C1c1cccs1" : 124 to 125 °C

Measured melting point of "CCc1nc2c(cnn2CC)c(NC2CCOCC2)c1CNC(=O)c1cc(C)cc(C(=O)NCc2ccc(Cl)c(-c3cccc(C=O)c3)c2)c1" : 153 to 156 °C

Measured melting point of "Brc1ccc(-c2cc3c(ccc4ccccc43)o2)cc1" : 154 to 155 °C

Measured melting point of "CCCc1nc2c(N)nc3cc(OCc4cscn4)ccc3c2s1" : 218 to 220 °C

Measured melting point of "COc1ccc(C2(C#N)CC2)cc1OC1CCCC1" : 80.4 °C

Measured melting point of "CCOc1nn(Cc2ccc(OCc3cccc(-c4ccccc4)n3)cc2)cc1CCC(=O)O" : 95 to 96 °C

Measured melting point of "CCOC(=O)c1coc(-c2ccc(Cn3cnc4ccccc43)cc2)n1" : 150 to 152 °C

Measured melting point of CC(=O)SC(CC(=O)c1ccc(C)cc1)C(=O)O (stereo not given) : 81 to 85 °C

Measured melting point of "CCOC(=O)C(=O)Nc1ccc(NC(=O)C(=O)OCC)nc1" : 178 to 180 °C

Measured melting point of "COCOc1ccc(-n2cc(C(=O)O)c(=O)cc2-c2ccc(N(C)C)cc2)cc1" : 150 to 152 °C

###

reported property: melting point

Use these answered entries as a reference point.
1) COc1ccc(N2CCN(c3ccc(OC(F)(F)F)cc3)C(=O)C2)c(-c2ccc(N(C)C)cc2)n1 = 116 to 120 °C
2) CC(=O)c1ccc(Nc2c(F)c(F)cc(F)c2F)c(CC(=O)N(C)C)c1 = 112 to 114 °C

Measured melting point of "Cc1ccc(C)c(C(=O)c2cc(Cl)ccc2Cl)c1" : 58 to 61 °C

Measured melting point of "Cc1oc(-c2ccccc2)nc1COc1ccc(COc2ccc3ccccc3c2CC(=O)O)cc1" : 187 to 188 °C

Measured melting point of "COc1ccc(CO)cc1OCc1nc(-c2ccccc2)oc1C" : 144 to 145 °C

Measured melting point of CCCC1(O)CSC(=S)N1c1cccc(C)n1 (centres undefined) : 70 °C

Measured melting point of "CCN1CCN(C(=O)c2ccc(-c3[nH]nc4c3C(=O)c3c(NC(=O)NN5CCOCC5)cccc3-4)s2)CC1" : 186 to 188 °C

Measured melting point of C=CC1(O)CCC2(C)C(CCC3C2CCC2(C)C(OC)CCC32)C1 (centres undefined) : 104 to 111 °C
